Measured values drawn from patent US12258327B2 for this set.

Target: EGFR del19/T790M/C797S (Homo sapiens, UniProt P00533, C797S/DEL746-750/T790M)
Sequence (P00533 with tags, fused parts or gaps DEL746-750/T790M/C797S): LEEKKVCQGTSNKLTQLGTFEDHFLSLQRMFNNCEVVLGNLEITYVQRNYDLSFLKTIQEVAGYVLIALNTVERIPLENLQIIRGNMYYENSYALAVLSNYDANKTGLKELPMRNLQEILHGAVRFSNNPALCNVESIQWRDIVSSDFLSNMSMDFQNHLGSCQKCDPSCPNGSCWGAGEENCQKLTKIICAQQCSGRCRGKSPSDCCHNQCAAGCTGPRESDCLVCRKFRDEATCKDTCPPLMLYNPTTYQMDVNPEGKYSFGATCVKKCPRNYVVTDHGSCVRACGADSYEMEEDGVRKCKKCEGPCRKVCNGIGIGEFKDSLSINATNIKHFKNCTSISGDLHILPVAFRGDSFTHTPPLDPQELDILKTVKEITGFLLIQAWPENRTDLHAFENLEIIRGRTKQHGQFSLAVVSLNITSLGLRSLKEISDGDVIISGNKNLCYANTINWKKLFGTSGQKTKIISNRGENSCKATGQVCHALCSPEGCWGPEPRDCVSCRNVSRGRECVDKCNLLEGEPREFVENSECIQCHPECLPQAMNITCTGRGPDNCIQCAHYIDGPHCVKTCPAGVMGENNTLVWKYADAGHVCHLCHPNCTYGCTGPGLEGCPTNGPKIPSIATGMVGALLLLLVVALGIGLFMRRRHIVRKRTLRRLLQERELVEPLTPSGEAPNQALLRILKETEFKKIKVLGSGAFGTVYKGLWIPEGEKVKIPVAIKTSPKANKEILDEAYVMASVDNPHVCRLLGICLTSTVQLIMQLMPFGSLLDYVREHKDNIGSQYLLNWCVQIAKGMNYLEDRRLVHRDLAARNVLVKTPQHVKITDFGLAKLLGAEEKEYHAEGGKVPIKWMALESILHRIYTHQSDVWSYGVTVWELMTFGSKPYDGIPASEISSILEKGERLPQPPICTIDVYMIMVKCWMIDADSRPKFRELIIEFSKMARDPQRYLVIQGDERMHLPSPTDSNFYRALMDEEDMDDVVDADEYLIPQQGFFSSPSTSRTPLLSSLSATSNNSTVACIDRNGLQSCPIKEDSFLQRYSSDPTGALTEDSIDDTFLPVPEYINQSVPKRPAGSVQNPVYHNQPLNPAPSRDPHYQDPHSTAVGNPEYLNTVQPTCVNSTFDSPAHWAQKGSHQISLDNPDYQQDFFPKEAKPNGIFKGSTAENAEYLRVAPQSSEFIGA
Assay: Biochemical EGFR kinase assay (Lance Ultra TR-FRET), triple mutant del19/T790M/C797S
Conditions: Km ATP; read-out: IC50 del19/T790M/C797S, Km ATP
pIC50: −log10 of the molar value.
measure: pIC50

molecule	pIC50
Cc1nn(CC(F)(F)F)cc1-c1nccc(Nc2cc(N[C@H]3CC[C@@](C)(O)CC3)c(-c3ccn(C(F)F)n3)nn2)n1 [Example 375]	7.79

P: C[C@]1(O)CC[C@@H](Nc2cc(Nc3ccnc(-c4cnn(S(=O)(=O)C5CC5)c4)n3)nnc2-c2ccn(C(F)F)n2)CC1 [Example 372]
Q: C[C@]1(O)CC[C@@H](Nc2cc(Nc3ccnc(-c4cnn(S(=O)(=O)C5CC5)c4)n3)nnc2-c2ccn(CC(F)(F)F)n2)CC1 [Example 374]
Out of P and Q , name the one with the higher pIC50. Your answer should be the label attached to the chosen record.
Q
(Q: 9.52, P: 9.22)

====

Molecular target: EGFR L858R/C797S (Homo sapiens, UniProt P00533, C797S/L858R)
Sequence (P00533 25-1210 C797S/L858R): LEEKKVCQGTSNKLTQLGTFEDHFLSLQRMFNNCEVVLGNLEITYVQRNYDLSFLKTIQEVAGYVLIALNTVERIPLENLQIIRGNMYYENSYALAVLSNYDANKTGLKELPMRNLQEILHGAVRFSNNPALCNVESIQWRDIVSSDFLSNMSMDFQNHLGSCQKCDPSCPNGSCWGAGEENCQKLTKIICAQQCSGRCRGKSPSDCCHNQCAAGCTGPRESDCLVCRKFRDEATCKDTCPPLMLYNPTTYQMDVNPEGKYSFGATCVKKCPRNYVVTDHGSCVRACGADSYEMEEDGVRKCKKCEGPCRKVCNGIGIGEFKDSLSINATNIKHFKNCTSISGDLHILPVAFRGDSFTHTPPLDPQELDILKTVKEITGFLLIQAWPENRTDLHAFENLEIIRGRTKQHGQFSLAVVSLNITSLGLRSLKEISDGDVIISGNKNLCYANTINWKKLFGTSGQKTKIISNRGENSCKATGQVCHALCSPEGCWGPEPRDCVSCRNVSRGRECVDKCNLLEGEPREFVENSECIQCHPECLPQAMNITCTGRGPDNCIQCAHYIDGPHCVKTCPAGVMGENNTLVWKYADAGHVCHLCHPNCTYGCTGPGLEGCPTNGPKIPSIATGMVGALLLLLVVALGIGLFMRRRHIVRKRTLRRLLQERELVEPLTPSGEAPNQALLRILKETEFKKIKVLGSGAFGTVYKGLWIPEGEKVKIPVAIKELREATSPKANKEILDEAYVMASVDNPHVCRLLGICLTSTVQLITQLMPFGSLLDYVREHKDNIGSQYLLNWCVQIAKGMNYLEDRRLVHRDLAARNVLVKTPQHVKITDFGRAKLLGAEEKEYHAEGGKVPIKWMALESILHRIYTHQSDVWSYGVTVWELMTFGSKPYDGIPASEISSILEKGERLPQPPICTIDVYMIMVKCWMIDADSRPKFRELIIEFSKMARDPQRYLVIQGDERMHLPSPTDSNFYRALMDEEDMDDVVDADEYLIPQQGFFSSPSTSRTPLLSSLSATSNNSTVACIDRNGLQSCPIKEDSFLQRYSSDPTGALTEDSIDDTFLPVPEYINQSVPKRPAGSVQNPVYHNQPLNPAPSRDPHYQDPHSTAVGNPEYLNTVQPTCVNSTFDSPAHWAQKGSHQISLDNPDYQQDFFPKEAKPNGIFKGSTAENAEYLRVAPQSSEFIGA
Assay: Biochemical EGFR kinase assay (Lance Ultra TR-FRET), double mutant L858R/C797S
Details: Km ATP; read-out: IC50 L858R/C797S (nM) Km ATP
measure: IC50 (nM)

structure-as-smiles	IC50 / nM
C[C@]1(O)CC[C@@H](Nc2cc(Nc3ccnc(-c4cnn(CC(F)F)c4)n3)ncc2-c2ccn(C(F)F)n2)CC1	0.9

I: O=S(=O)(C1CC1)n1cc(-c2nccc(Nc3cc(N[C@H]4CC[C@@H](CN5CCC5)CC4)c(-c4ccn(CC(F)(F)F)n4)cn3)n2)cn1
II: O=S(=O)(C1CC1)n1cc(-c2nccc(Nc3cc(N[C@H]4CC[C@@H](CN5CCC5)CC4)c(-c4ccn(CC(F)F)n4)cn3)n2)cn1
III: O=S(=O)(C1CC1)n1cc(-c2nccc(Nc3cc(N[C@H]4CC[C@H](CO)CC4)c(-c4ccn(C(F)F)n4)cn3)n2)cn1
IV: O=S(=O)(C1CC1)n1cc(-c2nccc(Nc3cc(N[C@H]4CC[C@@H](NCCF)CC4)c(-c4nc(C(F)F)cs4)cn3)n2)cn1
V: C[C@]1(O)CC[C@@H](Nc2cc(Nc3ccnc(-c4cnn(CC(F)F)c4)n3)ncc2-n2ccc(C(F)F)n2)CC1
Rank ascending by IC50. Answer format: list of labels, ordered as asked.
II, I, IV, III, V
(II: 0.2 nM, I: 0.4 nM, IV: 1.9 nM, III: 4.2 nM, V: 36.6 nM)

1: CN(C)S(=O)(=O)n1cc(-c2nccc(Nc3cc(N[C@H]4CC[C@@](C)(O)CC4)c(-c4ccn(C(F)F)n4)cn3)n2)cn1
2: C[C@]1(O)CC[C@@H](Nc2cc(Nc3ccnc(-c4cnn(S(=O)(=O)C5CC5)c4)n3)ncc2-c2cn3c(n2)CCC3)CC1
3: CN(C)C[C@H]1C[C@H](CNc2cc(Nc3ccnc(-c4cnn(S(=O)(=O)C5CC5)c4)n3)ncc2-c2ccn(C(F)F)n2)C1
Order these by IC50, descending, and give the full ranking. Answer format: list of labels, ordered as asked.
3, 1, 2
(3: 4.8 nM, 1: 2.2 nM, 2: 0.3 nM)

====

Molecular target: EGFR del19/T790M/C797S (Homo sapiens, UniProt P00533, C797S/DEL746-750/T790M)
Test: Biochemical EGFR kinase assay (Lance Ultra TR-FRET), triple mutant del19/T790M/C797S
Details: Km ATP; read-out: IC50 del19/T790M/C797S (nM) Km ATP
measure: IC50 (nM)

compound	value-unit	IC50
C[C@]1(O)CC[C@@H](Nc2cc(Nc3ccnc(-c4cnn(CC(F)(F)C(F)F)c4)n3)ncc2-c2ccn(C(F)F)n2)CC1	nM	1.9
C[C@]1(O)CC[C@@H](Nc2cc(Nc3ccnc(-c4cnn(C5CC5)c4)n3)ncc2-c2ccn(C(F)F)n2)CC1	nM	1
Cc1nn(S(=O)(=O)N(C)C)cc1-c1nccc(Nc2cc(N[C@H]3CC[C@@](C)(O)CC3)c(-c3ccn(C(F)F)n3)cn2)n1	nM	0.6
COc1ncc(-c2nccc(Nc3cc(N[C@H]4CC[C@@](C)(O)CC4)c(-c4ccn(C(F)F)n4)cn3)n2)cc1F	nM	46.2
CC1CC(Nc2cc(Nc3ccnc(-c4cnn(S(=O)(=O)C5CC5)c4)n3)ncc2-c2ccn(C(F)F)n2)CCC1O (stereo not drawn)	nM	7.7
O=S(=O)(C1CC1)n1cc(-c2ncc(F)c(Nc3cc(N[C@H]4CC[C@@H](CN5CCC5)CC4)c(-c4ccn(C(F)F)n4)cn3)n2)cn1	nM	0.4
CN1CCN(c2nc(-c3cnc(Nc4ccnc(-c5cnn(S(=O)(=O)C6CC6)c5)n4)cc3N[C@H]3CC[C@@](C)(O)CC3)cs2)CC1	nM	1.2
C[C@]1(O)CC[C@H](CNc2cc(Nc3ccnc(-c4cnn(S(=O)(=O)C5CC5)c4)n3)ncc2-c2ccn(C(F)F)n2)CC1	nM	0.8

P: O=S(=O)(C1CC1)n1cc(-c2nccc(Nc3cc(NC[C@H]4CC[C@H](O)CC4)c(-c4ccn(C(F)F)n4)cn3)n2)cn1
Q: Cn1ccc(-c2cnc(Nc3ccnc(-c4cnn(S(=O)(=O)C5CC5)c4)n3)cc2NCC2CCC(NCCF)CC2)n1 (stereo not drawn)
Hi there, can you help? I need to know whether P or Q has lower measured IC50. Your answer should be the label attached to the chosen record.
Q
(Q: 0.2 nM, P: 0.4 nM)

====

Target: EGFR L858R/C797S (Homo sapiens, UniProt P00533, C797S/L858R)
Experiment: Biochemical EGFR kinase assay (Lance Ultra TR-FRET), double mutant L858R/C797S
Details: IC50 L858R/C797S (nM) 100 μM ATP, 100 μM ATP
measure: IC50 (nM)

Solved entries (count: 5):
molecule	value-unit	IC50
O=S(=O)(C1CC1)n1cc(-c2nccc(Nc3cc(N[C@H]4CCCNCC4)c(-c4ccn(C(F)F)n4)cn3)n2)cn1	nM	691
CC1(O)CCC(Oc2cc(Nc3ccnc(-c4cnn(S(=O)(=O)C5CC5)c4)n3)ncc2-c2ccn(C(F)F)n2)CC1 (centres unmarked)	nM	55.9
O=S(=O)(C1CC1)n1cc(-c2nccc(Nc3cc(N[C@H]4CC[C@@H](CO)CC4)c(-c4cc5n(n4)CCCC5)cn3)n2)cn1	nM	2.4
Cn1nc(-c2cnc(Nc3ccnc(-c4cnn(S(=O)(=O)C5CC5)c4)n3)cc2N[C@H]2CC[C@@H](NCCF)CC2)cc1C(F)(F)F	nM	25.4
O=S(=O)(C1CC1)n1cc(-c2nccc(Nc3cc(N[C@H]4CC[C@@H](CN5CCC5)CC4)c(-c4ccn(C(F)F)n4)cn3)n2)cn1	nM	0.2

a: O=S(=O)(C1CC1)n1cc(-c2nccc(Nc3cc(N[C@@H]4CC[C@H](O)C4)c(-c4ccn(C(F)F)n4)cn3)n2)cn1
b: C[C@]1(O)CCCN(c2cc(Nc3ccnc(-c4cnn(S(=O)(=O)C5CC5)c4)n3)ncc2-c2ccn(C(F)F)n2)C1
c: O=S(=O)(C1CC1)n1cc(-c2nccc(Nc3cc(NCC4(CO)COC4)c(-c4ccn(C(F)F)n4)cn3)n2)cn1
Order these by IC50, descending, and give the full ranking. Answer format: list of labels, ordered as asked.
b, c, a

1: COCCn1cc(-c2nccc(Nc3cc(N[C@H]4CC[C@@](C)(O)CC4)c(-c4ccn(C(F)F)n4)cn3)n2)cn1
2: O=S(=O)(C1CC1)n1cc(-c2nccc(Nc3cc(NC4CCC(CCO)CC4)c(-c4ccn(C(F)F)n4)cn3)n2)cn1 (centres unmarked)
3: CC(C)(O)[C@H]1CC[C@@H](Nc2cc(Nc3ccnc(-c4cnn(S(=O)(=O)C5CC5)c4)n3)ncc2-c2ccn(C(F)F)n2)CC1
Rank ascending by IC50. Answer format: list of labels, ordered as asked.
3, 2, 1
(3: 21.9 nM, 2: 99.3 nM, 1: 295 nM)

====

Biological target: EGFR L858R/T790M/C797S (Homo sapiens, UniProt P00533, C797S/L858R/T790M)
Sequence (P00533 25-1210 T790M/C797S/L858R): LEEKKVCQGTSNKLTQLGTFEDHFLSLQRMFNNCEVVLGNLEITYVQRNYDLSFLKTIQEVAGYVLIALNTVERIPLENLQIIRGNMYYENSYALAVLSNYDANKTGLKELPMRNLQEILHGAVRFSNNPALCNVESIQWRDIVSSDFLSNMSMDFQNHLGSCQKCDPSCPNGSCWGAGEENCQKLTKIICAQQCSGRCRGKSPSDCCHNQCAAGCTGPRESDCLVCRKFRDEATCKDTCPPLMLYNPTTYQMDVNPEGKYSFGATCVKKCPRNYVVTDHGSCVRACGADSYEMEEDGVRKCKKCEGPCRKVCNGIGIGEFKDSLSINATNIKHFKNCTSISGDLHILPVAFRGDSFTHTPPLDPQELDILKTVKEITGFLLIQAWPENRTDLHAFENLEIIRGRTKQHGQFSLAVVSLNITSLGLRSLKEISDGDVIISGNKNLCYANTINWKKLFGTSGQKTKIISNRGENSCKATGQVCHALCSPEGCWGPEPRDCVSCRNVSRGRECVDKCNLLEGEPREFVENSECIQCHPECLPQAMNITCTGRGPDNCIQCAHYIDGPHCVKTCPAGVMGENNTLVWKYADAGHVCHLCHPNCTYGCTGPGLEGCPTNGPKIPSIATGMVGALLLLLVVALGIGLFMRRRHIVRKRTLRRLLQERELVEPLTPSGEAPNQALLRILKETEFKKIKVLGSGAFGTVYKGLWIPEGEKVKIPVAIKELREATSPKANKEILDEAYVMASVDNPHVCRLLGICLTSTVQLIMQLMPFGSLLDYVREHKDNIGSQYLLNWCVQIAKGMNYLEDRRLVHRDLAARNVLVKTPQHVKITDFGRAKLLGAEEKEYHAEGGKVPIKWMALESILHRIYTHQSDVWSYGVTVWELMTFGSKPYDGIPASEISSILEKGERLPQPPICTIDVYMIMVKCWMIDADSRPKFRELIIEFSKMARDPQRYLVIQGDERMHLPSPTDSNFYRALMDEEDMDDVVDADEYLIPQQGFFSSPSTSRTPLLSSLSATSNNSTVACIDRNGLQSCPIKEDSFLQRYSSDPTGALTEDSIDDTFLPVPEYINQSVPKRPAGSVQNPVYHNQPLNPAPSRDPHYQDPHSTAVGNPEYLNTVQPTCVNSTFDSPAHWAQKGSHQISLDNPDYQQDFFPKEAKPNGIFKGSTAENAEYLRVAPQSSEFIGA
Assay: Biochemical EGFR kinase assay (Lance Ultra TR-FRET), triple mutant L858R/T790M/C797S
Settings: Km ATP; read-out: IC50 L858R/T790M/C797S (nM) Km ATP
measure: IC50 (nM)

Solved entries (count: 4):
molecule	IC50 (nM)
CN(C)CC1(C)CCC(Nc2cc(Nc3ccnc(-c4cnn(S(=O)(=O)C5CC5)c4)n3)ncc2-c2ccn(CC(F)F)n2)CC1 (stereo not drawn) [Example 246]	0.3
CN(C)C(=O)[C@H]1CC[C@@H](Nc2cc(Nc3ccnc(-c4cnn(S(=O)(=O)C5CC5)c4)n3)ncc2-c2ccn(C(F)F)n2)CC1 [Example 201]	0.3
C[C@]1(O)CC[C@@H](Nc2cc(Nc3ccnc(-c4cnn(S(=O)(=O)N5CC(F)C5)c4)n3)ncc2-c2ccn(C(F)F)n2)CC1 [Example 324]	1.7
CN1CCC(n2ccc(-c3cnc(Nc4ccnc(-c5cnn(S(=O)(=O)C6CC6)c5)n4)cc3N[C@H]3CC[C@@](C)(O)CC3)n2)CC1 [Example 287]	0.1

a: O=S(=O)(C1CC1)n1cc(-c2nccc(Nc3cc(N[C@H]4CC[C@@H](NCCF)CC4)c(-c4csc(N5CCOCC5)n4)cn3)n2)cn1 [Example 126]
b: FC(F)Cn1cc(-c2nccc(Nc3cc(NC4CCCC(F)C4)c(-c4ccn(C(F)F)n4)cn3)n2)cn1 (stereo not drawn) [Example 180]
Out of a and b , name the one with the higher IC50. Your answer should be the label attached to the chosen record.
b
